B1: library; a variant is named by its letters at N, in order (parent)
chain: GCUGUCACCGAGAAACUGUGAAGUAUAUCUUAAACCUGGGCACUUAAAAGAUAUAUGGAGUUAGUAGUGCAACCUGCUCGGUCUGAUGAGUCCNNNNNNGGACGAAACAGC

- Variants of: B1
- test: normalized RNA/DNA level with ligand (relative to sTRSVctl = 100) (log10 (% of sTRSVctl)); HEK293T; ligand: cyclic di-GMP (c-di-GMP-II aptamer); ligand concentration (+) RNA-Seq: 1 mM; higher = less ribozyme self-cleavage, higher mRNA level
- setup-conditions: reporter: mCherry (pCS4076), ligand present: yes
endpoint: normalized RNA/DNA level with ligand (log10)
Give a plain numeric answer without units written out.

// below: answered variants
> print(dat)
      var  reported.measurement
1  GAACGA                  1.64
2  UCUGCA                  1.85
3  CCCACA                  1.74
4  CGUAGU                  1.82

Name the reported normalized RNA/DNA level with ligand (log10) value associated with the variant `UAUGCU`
1.86

Okay, and `UUCCGC` ?
1.89

Okay, and `ACAAUG` ?
1.66

Okay, and `CCGCUA` ?
1.68

Okay, and `AUGUCU` ?
1.84

Okay, and `GUUGGA` ?
1.72

Okay, and `CAGAGU` ?
1.86
